Biological target: T1, cell-bound CD73 (human, UniProt P21589 27-549)
T1 sequence (looked up): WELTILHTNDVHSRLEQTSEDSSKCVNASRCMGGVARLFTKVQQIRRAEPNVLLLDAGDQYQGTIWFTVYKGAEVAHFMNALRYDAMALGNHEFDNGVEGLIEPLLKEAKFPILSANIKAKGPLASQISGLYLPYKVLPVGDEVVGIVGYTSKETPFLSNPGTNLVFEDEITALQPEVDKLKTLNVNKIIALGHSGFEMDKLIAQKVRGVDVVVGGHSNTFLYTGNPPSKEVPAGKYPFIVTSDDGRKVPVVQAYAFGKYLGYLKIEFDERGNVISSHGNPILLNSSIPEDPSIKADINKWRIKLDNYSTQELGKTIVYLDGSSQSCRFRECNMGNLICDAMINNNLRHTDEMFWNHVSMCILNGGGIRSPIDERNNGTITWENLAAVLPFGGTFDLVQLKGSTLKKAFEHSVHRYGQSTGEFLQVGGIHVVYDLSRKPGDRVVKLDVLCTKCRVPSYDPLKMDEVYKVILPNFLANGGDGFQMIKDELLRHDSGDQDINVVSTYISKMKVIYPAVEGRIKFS
Experiment: cell-based or functional assay
Parameter IFNγ release [fold change over control], Donor F, 1 nM antibody: see the listing below.

Consider the worked cases shown below.
- C4 (antibody, human IgG1, kappa, L234A L235A, V domains shown, Humanized monoclonal antibody; also called C04; inventive anti-CD73 antibody C4) VH: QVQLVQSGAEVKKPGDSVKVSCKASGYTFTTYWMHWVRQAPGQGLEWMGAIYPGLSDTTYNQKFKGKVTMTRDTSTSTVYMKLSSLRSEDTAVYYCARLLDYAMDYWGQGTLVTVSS VL: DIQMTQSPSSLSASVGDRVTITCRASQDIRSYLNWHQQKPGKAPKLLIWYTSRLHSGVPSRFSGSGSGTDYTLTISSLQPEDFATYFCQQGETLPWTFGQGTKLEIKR: 7.1 fold
- C3 (antibody, human IgG1, kappa, L234A L235A, V domains shown, Humanized monoclonal antibody; also called anti-CD73 antibody C3) VH: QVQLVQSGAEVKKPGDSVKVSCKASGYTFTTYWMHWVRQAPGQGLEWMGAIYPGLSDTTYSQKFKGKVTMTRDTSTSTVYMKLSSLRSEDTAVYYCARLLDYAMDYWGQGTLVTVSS VL: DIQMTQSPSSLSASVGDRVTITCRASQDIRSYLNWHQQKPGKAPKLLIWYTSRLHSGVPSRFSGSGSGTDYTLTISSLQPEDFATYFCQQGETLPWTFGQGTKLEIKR: 6.7 fold

Now consider a different binder.
What IFNγ release [fold change over control], Donor F, 1 nM antibody value was documented for this binder, C5 (antibody, human IgG1, kappa, L234A L235A, V domains shown, Humanized monoclonal antibody; also called anti-CD73 antibody C5) VH: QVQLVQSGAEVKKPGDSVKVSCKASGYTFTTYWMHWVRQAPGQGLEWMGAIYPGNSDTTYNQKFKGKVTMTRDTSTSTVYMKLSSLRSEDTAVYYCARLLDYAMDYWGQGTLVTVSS VL: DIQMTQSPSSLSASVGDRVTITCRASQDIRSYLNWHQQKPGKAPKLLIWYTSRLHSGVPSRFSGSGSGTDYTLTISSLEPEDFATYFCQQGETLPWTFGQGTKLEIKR ?
5.8 fold

src = patent US20190352420A1
